System: Staphylococcus aureus
procedure summary: Antibacterial activity against methicillin-resistant Staphylococcus aureus USA 300 assessed as reduction in bacterial growth after 18 hrs by CLSI based broth microdilution assay
Type: functional
Where a SMILES comes first, the peptide text is derived from it. Bridges are numbered along the chain shown (N, C = ends). [ ]: non-standard residue; d: D form. The star is where a group is joined. X1 = CC[C@H](C)CCCCC(=O)*; Dab = NCC[C@H](N)C(=O)O
metric: MIC (µM)
# unit: µM | format: bare number

Some solved cases for reference:
[
  {
    "compound": "N=C(N)NCCC[C@@H]1C(=O)N(Cc2ccc(-c3ccccc3)cc2)[C@@H](CCCNC(=N)N)C(=O)N1Cc1ccc(-c2ccccc2)cc1",
    "units label": "µM",
    "MIC": 4
  },
  {
    "compound": "CC[C@H](C)CCCCC(=O)N[C@@H](CCN)C(=O)N[C@H](C(=O)N[C@@H](CCN)C(=O)N[C@H]1CCNC(=O)[C@H]([C@@H](C)O)NC(=O)[C@H](CCN)NC(=O)[C@H](CCN)NC(=O)[C@H](CC(C)C)NC(=O)[C@@H](Cc2ccccc2)NC(=O)[C@H](CCN)NC1=O)[C@@H](C)O (X1-[Dab]T[Dab][Dab][Dab][dF]L[Dab][Dab]T; lactam 4-C)",
    "units label": "µM",
    "MIC": 32
  },
  {
    "compound": "N=C(N)NCCC[C@@H]1C(=O)N(Cc2ccc(-c3ccccc3)cc2)[C@H](CCCNC(=N)N)C(=O)N1Cc1ccc(-c2ccccc2)cc1",
    "units label": "µM",
    "MIC": 4
  },
  {
    "compound": "N=C(N)NCCC[C@H]1C(=O)N(Cc2ccc(-c3ccccc3)cc2)[C@@H](CCCNC(=N)N)C(=O)N1Cc1ccc(-c2ccccc2)cc1",
    "units label": "µM",
    "MIC": 4
  }
]

In: Name the recorded MIC for NCCC[C@H]1C(=O)N(Cc2ccc(-c3ccccc3)cc2)[C@@H](CCCN)C(=O)N1Cc1ccc(-c2ccccc2)cc1 .
Out: 4

----------
System: Enterococcus faecalis
procedure summary: Antibacterial activity against Enterococcus faecalis ATCC 29212 assessed as reduction in bacterial growth after 18 hrs by CLSI based broth microdilution assay
Format: functional
Where a SMILES comes first, the peptide text is derived from it. Bridges are numbered along the chain shown (N, C = ends). [ ]: non-standard residue; d: D form. The star is where a group is joined. X1 = CC[C@H](C)CCCCC(=O)*; Dab = NCC[C@H](N)C(=O)O
As shown below, each of these compounds has a reported MIC value.
# unit: µM | format: bare number

[
  {
    "compound": "N=C(N)NCCC[C@H]1C(=O)N(Cc2ccc(-c3ccccc3)cc2)[C@@H](CCCNC(=N)N)C(=O)N1Cc1ccc(-c2ccccc2)cc1",
    "assayed target": "Enterococcus faecalis",
    "MIC [µM]": 2
  },
  {
    "compound": "N=C(N)NCCC[C@@H]1C(=O)N(Cc2ccc(-c3ccccc3)cc2)[C@H](CCCNC(=N)N)C(=O)N1Cc1ccc(-c2ccccc2)cc1",
    "assayed target": "Enterococcus faecalis",
    "MIC [µM]": 4
  },
  {
    "compound": "CC[C@H](C)CCCCC(=O)N[C@@H](CCN)C(=O)N[C@H](C(=O)N[C@@H](CCN)C(=O)N[C@H]1CCNC(=O)[C@H]([C@@H](C)O)NC(=O)[C@H](CCN)NC(=O)[C@H](CCN)NC(=O)[C@H](CC(C)C)NC(=O)[C@@H](Cc2ccccc2)NC(=O)[C@H](CCN)NC1=O)[C@@H](C)O (X1-[Dab]T[Dab][Dab][Dab][dF]L[Dab][Dab]T; lactam 4-C)",
    "assayed target": "Enterococcus faecalis",
    "MIC [µM]": 8
  }
]

In: Name the recorded MIC for NCCC[C@H]1C(=O)N(Cc2ccc(-c3ccccc3)cc2)[C@@H](CCCN)C(=O)N1Cc1ccc(-c2ccccc2)cc1 .
Out: 8

In: Name the recorded MIC for CC1(C)S[C@@H]2[C@H](NC(=O)[C@H](N)c3ccc(O)cc3)C(=O)N2[C@H]1C(=O)O .
Out: 8

In: Name the recorded MIC for N=C(N)NCCC[C@@H]1C(=O)N(Cc2ccc(-c3ccccc3)cc2)[C@@H](CCCNC(=N)N)C(=O)N1Cc1ccc(-c2ccccc2)cc1 .
Out: 16

----------
As shown below, each of these compounds has a reported MIC value.
Tested on: Streptococcus pyogenes
procedure summary: Antibacterial activity against macrolide- and tetracycline-resistant Streptococcus pyogenes HKU16 assessed as reduction in bacterial growth after 18 hrs by CLSI based broth microdilution assay
Type: functional
# unit: µM | format: bare number

Some solved cases for reference:
[
  {
    "test smiles": "N=C(N)NCCC[C@H]1C(=O)N(Cc2ccccc2)[C@@H](CCCNC(=N)N)C(=O)N1Cc1ccccc1",
    "units label": "µM",
    "observed": 64
  },
  {
    "test smiles": "N=C(N)NCCC[C@H]1C(=O)N(Cc2ccc(-c3ccccc3)cc2)[C@@H](CCCNC(=N)N)C(=O)N1Cc1ccc(-c2ccccc2)cc1",
    "units label": "µM",
    "observed": 8
  },
  {
    "test smiles": "CC1(C)S[C@@H]2[C@H](NC(=O)[C@H](N)c3ccc(O)cc3)C(=O)N2[C@H]1C(=O)O",
    "units label": "µM",
    "observed": 0.25
  }
]

In: Name the recorded MIC for N=C(N)NCCC[C@@H]1C(=O)N(Cc2ccc(-c3ccccc3)cc2)[C@H](CCCNC(=N)N)C(=O)N1Cc1ccc(-c2ccccc2)cc1 .
Out: 8

----------
procedure summary: Cytotoxicity against NHDF cells assessed as reduction in cell viability measured after 24 hrs by MTT assay
Assay type: toxicity, cell-based
details: human, read-out: LD50
metric: CC50 at 24 h (µM)
# unit: µM | format: bare number

Some solved cases for reference:
[
  {
    "test smiles": "NCCC[C@H]1C(=O)N(Cc2ccc(-c3ccccc3)cc2)[C@@H](CCCN)C(=O)N1Cc1ccc(-c2ccccc2)cc1",
    "units label": "µM",
    "CC50 at 24 h": 30
  },
  {
    "test smiles": "N=C(N)NCCC[C@@H]1C(=O)N(Cc2ccc(-c3ccccc3)cc2)[C@@H](CCCNC(=N)N)C(=O)N1Cc1ccc(-c2ccccc2)cc1",
    "units label": "µM",
    "CC50 at 24 h": 175
  },
  {
    "test smiles": "N=C(N)NCCC[C@@H]1C(=O)N(Cc2ccc(-c3ccccc3)cc2)[C@H](CCCNC(=N)N)C(=O)N1Cc1ccc(-c2ccccc2)cc1",
    "units label": "µM",
    "CC50 at 24 h": 99
  }
]

Now for a further compound.
In: Name the recorded CC50 at 24 h for N=C(N)NCCC[C@H]1C(=O)N(Cc2ccc(-c3ccccc3)cc2)[C@@H](CCCNC(=N)N)C(=O)N1Cc1ccc(-c2ccccc2)cc1 .
Out: 63

----------
System: Streptococcus pyogenes
procedure summary: Antibacterial activity against macrolide- and tetracycline-resistant Streptococcus pyogenes HKU16 assessed as reduction in bacterial growth after 18 hrs by CLSI based broth microdilution assay
Format: functional
Where a SMILES comes first, the peptide text is derived from it. Bridges are numbered along the chain shown (N, C = ends). [ ]: non-standard residue; d: D form. The star is where a group is joined. X1 = CC[C@H](C)CCCCC(=O)*; Dab = NCC[C@H](N)C(=O)O
metric: MIC (µM)
# unit: µM | format: bare number

Some solved cases for reference:
[
  {
    "molecule": "CC[C@H](C)CCCCC(=O)N[C@@H](CCN)C(=O)N[C@H](C(=O)N[C@@H](CCN)C(=O)N[C@H]1CCNC(=O)[C@H]([C@@H](C)O)NC(=O)[C@H](CCN)NC(=O)[C@H](CCN)NC(=O)[C@H](CC(C)C)NC(=O)[C@@H](Cc2ccccc2)NC(=O)[C@H](CCN)NC1=O)[C@@H](C)O (X1-[Dab]T[Dab][Dab][Dab][dF]L[Dab][Dab]T; lactam 4-C)",
    "metric": "MIC",
    "units label": "µM",
    "observed": 32
  },
  {
    "molecule": "N=C(N)NCCC[C@@H]1C(=O)N(Cc2ccc(-c3ccccc3)cc2)[C@@H](CCCNC(=N)N)C(=O)N1Cc1ccc(-c2ccccc2)cc1",
    "metric": "MIC",
    "units label": "µM",
    "observed": 16
  }
]

Now for a further molecule.
In: Name the recorded MIC for NCCC[C@H]1C(=O)N(Cc2ccc(-c3ccccc3)cc2)[C@@H](CCCN)C(=O)N1Cc1ccc(-c2ccccc2)cc1 .
Out: 8

----------
Tested on: Aspergillus fumigatus
procedure summary: Antifungal activity against Aspergillus fumigatus SVB-F136 assessed as fungal growth inhibition after 48 hrs by CLSI protocol based microbroth dilution method
Assay type: functional
metric: MIC (µM)
# unit: µM | format: bare number

Some solved cases for reference:
[
  {
    "test smiles": "C[C@@H]1[C@H](O)[C@@H](C)/C=C/C=C/C=C/C=C/C=C/C=C/C=C/[C@H](O[C@@H]2O[C@H](C)[C@@H](O)[C@H](N)[C@@H]2O)C[C@@H]2O[C@](O)(C[C@@H](O)C[C@@H](O)[C@H](O)CC[C@@H](O)C[C@@H](O)CC(=O)O[C@H]1C)C[C@H](O)[C@H]2C(=O)O",
    "assayed target": "Aspergillus fumigatus",
    "units label": "µM",
    "MIC": 4
  },
  {
    "test smiles": "N=C(N)NCCC[C@@H]1C(=O)N(Cc2ccc(-c3ccccc3)cc2)[C@@H](CCCNC(=N)N)C(=O)N1Cc1ccc(-c2ccccc2)cc1",
    "assayed target": "Aspergillus fumigatus",
    "units label": "µM",
    "MIC": 64
  },
  {
    "test smiles": "N=C(N)NCCC[C@H]1C(=O)N(Cc2ccc(-c3ccccc3)cc2)[C@@H](CCCNC(=N)N)C(=O)N1Cc1ccc(-c2ccccc2)cc1",
    "assayed target": "Aspergillus fumigatus",
    "units label": "µM",
    "MIC": 8
  },
  {
    "test smiles": "N=C(N)NCCC[C@@H]1C(=O)N(Cc2ccc(-c3ccccc3)cc2)[C@H](CCCNC(=N)N)C(=O)N1Cc1ccc(-c2ccccc2)cc1",
    "assayed target": "Aspergillus fumigatus",
    "units label": "µM",
    "MIC": 8
  }
]

Now for a further molecule.
In: Name the recorded MIC for NCCC[C@H]1C(=O)N(Cc2ccc(-c3ccccc3)cc2)[C@@H](CCCN)C(=O)N1Cc1ccc(-c2ccccc2)cc1 .
Out: 32
